Values from patent US20240393319A1

Target: iATPSnFR2.A95A.A119L.HaloTag-JFX650 (L1-VLVG, L2-ICV); cpSFGFP inserted in epsilon subunit of Bacillus subtilis PS3 F0-F1 ATPase; mutations A95A, A119L; SEQ ID N (Bacillus sp. PS3, UniProt P07678)
Construct: E. coli, Ni-NTA purified
Sequence (P07678 whole entry, stated change not applied): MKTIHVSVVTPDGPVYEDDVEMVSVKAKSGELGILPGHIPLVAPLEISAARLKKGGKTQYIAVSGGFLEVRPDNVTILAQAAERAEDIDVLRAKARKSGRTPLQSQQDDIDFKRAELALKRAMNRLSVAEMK
Test: ATP/nucleotide titration, binding curve fits
Conditions: read-out: affinity for ADP (binding curve fit); A95A.A119L; head-to-head with ATP
Excerpt: (1A) Artistic rendering of iATPSnFR2.HaloTag made with PyMol. The N-terminal fragment (residues 1-109) of the epsilon subunit of ATPase (orange, based on 2E5Y.PDB) is fused to cpSFGFP (green). The C-terminus of cpSFGFP is fused to the residual ATP-binding helix (residues 110-129) of the epsilon subunit (pink), which itself is fused to HaloTag (cyan). […] (1C-1E) Ratio of green (iATPSnFR2) to red (HaloTag-JFX650) fluorescence in fibroblasts transfected with three affinity variants of iATPSnFR2-HaloTag. […]
MEASUREMENT LABEL: Kd (mM)
Express your answer in mM, writing the number without its unit.

Which value of Kd has been reported for "Nc1ncnc2c1ncn2[C@@H]1O[C@H](COP(=O)(O)OP(=O)(O)O)[C@@H](O)[C@H]1O" in the records?
5.3

====

Molecular target: iATPSnFR2.A95A.A119L.HaloTag-JFX650 (L1-VLVG, L2-ICV); cpSFGFP inserted in epsilon subunit of Bacillus subtilis PS3 F0-F1 ATPase; mutations A95A, A119L; SEQ ID N (Bacillus sp. PS3)
Construct: E. coli, Ni-NTA purified
Test: ATP/nucleotide titration, binding curve fits
Settings: read-out: affinity for CTP (binding curve fit); A95A.A119L; FIG. 5E
pKd: −log10 of the molar value.
MEASUREMENT LABEL: pKd

Which value of pKd has been reported for "Nc1ccn([C@@H]2O[C@H](COP(=O)(O)OP(=O)(O)OP(=O)(O)O)[C@@H](O)[C@H]2O)c(=O)n1" in the records?
~2.00

====

Biological target: iATPSnFR2.A95A.A119L.HaloTag-JFX650 (L1-VLVG, L2-ICV); cpSFGFP inserted in epsilon subunit of Bacillus subtilis PS3 F0-F1 ATPase; mutations A95A, A119L; SEQ ID N (Bacillus sp. PS3)
Construct: E. coli, Ni-NTA purified
Assay: ATP/nucleotide titration, binding curve fits
Details: read-out: affinity for GTP (binding curve fit); A95A.A119L; FIG. 5E
pKd: −log10 of the molar value.
MEASUREMENT LABEL: pKd

Which value of pKd has been reported for "Nc1nc2c(ncn2[C@@H]2O[C@H](COP(=O)(O)OP(=O)(O)OP(=O)(O)O)[C@@H](O)[C@H]2O)c(=O)[nH]1" in the records?
~2.00
